Attribution: patent US10633386B2

# System: SW48
# assay.notes: Cell growth inhibition (CellTiter-Glo), colon cancer line SW48
# Type: cell-based
# run.parameters: Homo sapiens
measure: IC50

Below, each entry is followed by its recorded IC50 result.
molecule: CCn1nc(C2CC2)cc1Nc1nc(C(=O)NCCCCNc2cccc3c2C(=O)N(C2CCC(=O)NC2=O)C3=O)nc2[nH]c3cc(-c4c(C)noc4C)c(OC)cc3c12 (stereo not drawn)
IC50: 8 nM

molecule: CCn1nc(C2CC2)cc1Nc1nc(COC)nc2[nH]c3cc(-c4c(C)noc4C)c(OC)cc3c12 [Cpd. A, reference compound]
IC50: 45.7 nM

Turning now to a further molecule:
Sample CCn1nc(C2CC2)cc1Nc1nc(C(=O)NCCCOCCOCCOCCCNc2cccc3c2C(=O)N(C2CCC(=O)NC2=O)C3=O)nc2[nH]c3cc(-c4c(C)noc4C)c(OC)cc3c12 (stereo not drawn) ; IC50 observed: 6 nM

====

# System: SUM-159
# assay.notes: Cell growth inhibition (CellTiter-Glo), breast cancer line SUM-159
# Assay type: cell-based
# run.parameters: SUM159, 96 h; SUM-159 breast cancer cell line, 4 days
measure: IC50 (nM)
Numbers only, in nM.

molecule: CCn1nc(C2CC2)cc1Nc1nc(C(=O)NCCCOCCOCCOCCCNc2cccc3c2C(=O)N(C2CCC(=O)NC2=O)C3=O)nc2[nH]c3cc(-c4c(C)noc4C)c(OC)cc3c12 (centres unmarked)
target.or.system: SUM-159
measure.unit: nM
IC50: 166

Turning now to a further molecule:
Sample CCn1nc(C2CC2)cc1Nc1nc(COC)nc2[nH]c3cc(-c4c(C)noc4C)c(OC)cc3c12 [Cpd. A, reference compound] ; IC50 observed: 510

====

# Tested on: MDA-MB-157
# assay.notes: Cell growth inhibition (CellTiter-Glo), breast cancer line MDA-MB-157
# Format: cell-based
# run.parameters: MDA-MB-157 breast cancer cell line, 4 days
measure: IC50 (nM)
Numbers only, in nM.

Sample Cc1sc2c(c1C)C(c1ccc(Cl)cc1)=N[C@@H](CC(=O)NCCCCNC(=O)COc1cccc3c1C(=O)N(C1CCC(=O)NC1=O)C3=O)c1nnc(C)n1-2 (stereo partly shown) [dBET1, reference compound] ; IC50 observed: 1170

====

# Tested on: HCC70
# assay.notes: Cell growth inhibition (CellTiter-Glo), breast cancer line HCC70
# Assay type: cell-based
# run.parameters: 4 days
pIC50: −log10 of the molar value.
measure: pIC50

Sample Cc1sc2c(c1C)C(c1ccc(Cl)cc1)=N[C@@H](CC(=O)NCCCCNC(=O)COc1cccc3c1C(=O)N(C1CCC(=O)NC1=O)C3=O)c1nnc(C)n1-2 (stereo partly shown) [dBET1, reference compound] ; pIC50 observed: < 5.30

====

# Tested on: H647
# assay.notes: Cell growth inhibition (CellTiter-Glo), NSCLC line H647
# Assay type: cell-based
# run.parameters: Homo sapiens, NCI-H647, 96 h; H647 non-small cell lung cancer cell line, 4 days
Would you kindly list IC50 for each of these compounds?
Answers are plain numbers, in nM.

compound: CCn1nc(C2CC2)cc1Nc1nc(C(=O)NCCCCNc2cccc3c2C(=O)N(C2CCC(=O)NC2=O)C3=O)nc2[nH]c3cc(-c4c(C)noc4C)c(OC)cc3c12 (stereo not drawn)
IC50 / nM: 789
//
compound: CCn1nc(C2CC2)cc1Nc1nc(COC)nc2[nH]c3cc(-c4c(C)noc4C)c(OC)cc3c12 [Cpd. A, reference compound]
IC50 / nM: 80

Turning now to a further compound:
Sample CCn1nc(C2CC2)cc1Nc1nc(C(=O)NCCCOCCOCCOCCCNc2cccc3c2C(=O)N(C2CCC(=O)NC2=O)C3=O)nc2[nH]c3cc(-c4c(C)noc4C)c(OC)cc3c12 (stereo not drawn) ; IC50 observed: 598
